Target: T1, human EphA4 (Homo sapiens, UniProt P54764)
T1 construct: made in house; not restated for the human SEAP-His protein
T1 sequence (P54764 20-547): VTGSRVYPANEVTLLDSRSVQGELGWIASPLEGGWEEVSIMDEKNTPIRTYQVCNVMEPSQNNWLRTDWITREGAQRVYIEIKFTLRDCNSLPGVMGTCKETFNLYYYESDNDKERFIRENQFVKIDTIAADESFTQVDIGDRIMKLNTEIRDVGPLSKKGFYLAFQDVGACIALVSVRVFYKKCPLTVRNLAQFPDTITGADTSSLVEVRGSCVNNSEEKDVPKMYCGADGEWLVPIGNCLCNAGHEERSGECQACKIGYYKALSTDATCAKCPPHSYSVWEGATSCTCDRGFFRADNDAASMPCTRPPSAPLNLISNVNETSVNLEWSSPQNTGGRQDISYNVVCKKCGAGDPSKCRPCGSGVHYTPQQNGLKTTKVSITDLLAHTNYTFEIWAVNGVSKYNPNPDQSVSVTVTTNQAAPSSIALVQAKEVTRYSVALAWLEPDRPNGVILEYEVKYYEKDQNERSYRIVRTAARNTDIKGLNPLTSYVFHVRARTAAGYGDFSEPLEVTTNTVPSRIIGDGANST
Experiment: Selectivity ELISA of humanized antibodies for human Eph receptor
Type: binding
Settings: coated protein 1 nM; reference set to 100%
We begin with a simple list: items and their reported hEphA4-SEAP-: absorbance at 450 nm, percentage with respect to hEphA4-SEAP-His as 100%.
Return type: number; implicit unit %.

>  <molecule>
71 (antibody, V domains shown, synthetic humanized antibody heavy chain variable region sequence; synthetic humanized antibody light chain variable region sequence) VH: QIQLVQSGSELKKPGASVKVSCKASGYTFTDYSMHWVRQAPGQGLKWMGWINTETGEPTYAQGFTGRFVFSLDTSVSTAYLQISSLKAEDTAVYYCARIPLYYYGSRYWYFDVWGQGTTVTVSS VL: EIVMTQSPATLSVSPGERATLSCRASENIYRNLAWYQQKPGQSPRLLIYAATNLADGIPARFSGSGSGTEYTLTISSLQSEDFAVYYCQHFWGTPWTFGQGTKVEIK

>  <measureUnit>
%

>  <experimentalValue>
100

$$$$

## Input Output measured hEphA4-SEAP-: absorbance at 450 nm, percentage with respect to hEphA4-SEAP-His as 100% for this item: 90 (antibody, V domains shown, constant regions without entry; synthetic humanized antibody light chain variable region sequence; synthetic humanized antibody heavy chain variable region sequence) VL: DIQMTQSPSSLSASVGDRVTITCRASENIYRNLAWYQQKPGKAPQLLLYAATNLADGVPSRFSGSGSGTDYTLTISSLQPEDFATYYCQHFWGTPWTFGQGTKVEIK VH: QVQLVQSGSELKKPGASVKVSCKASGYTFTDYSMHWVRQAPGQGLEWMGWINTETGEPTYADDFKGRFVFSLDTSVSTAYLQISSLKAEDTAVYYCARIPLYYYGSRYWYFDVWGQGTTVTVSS
## Output 100
